# ASSAY PROCEDURE: Unbound fraction in rat plasma at 10 uM by LCMS/MS detection based equilibrium dialysis method
# Type: ADME, cell-free
MEASURE NAME: fraction unbound at 10 µM

(a) CCn1c([C@@H](C)NS(=O)(=O)c2ccc(C#N)nc2)nc2cnc(C(F)(F)F)cc21
(b) CCn1c([C@@H](C)NS(=O)(=O)c2ccc(C#N)nc2)nc2cnc(C3CC3)cc21
Select one. Lower fraction unbound at 10 µM: a or b Select an item and report its label.
b
(b: 0.18, a: 0.32)

====

# ASSAY PROCEDURE: Volume of distribution at steady state in beagle dog at 2 mg/kg, iv by LCMS/MS method
# Assay type: ADME, organism-based, Canis lupus familiaris
# EXPERIMENTAL PARAMETERS: in vivo, read-out: Vdss
MEASURE NAME: Vd (L/kg)
Report the value in L/kg with no unit label.

What measured Vd goes with CCn1c([C@@H](C)NS(=O)(=O)c2ccc(C#N)nc2)nc2cnc(C3CC3)cc21 ?
0.7

====

# ASSAY PROCEDURE: Intrinsic clearance in dog hepatocytes assessed per 10^6 cells at 1 uM after 0.5 to 120 mins by LCMS/MS method
# Assay type: ADME, cell-based, Canis lupus familiaris, Hepatocyte
# EXPERIMENTAL PARAMETERS: read-out: CLH
MEASURE NAME: hepatocyte CLint at 1 µM (µL/min/1e6 cells)

CHEMICAL STRING: CCn1c([C@@H](C)NS(=O)(=O)c2ccc(C#N)nc2)nc2cnc(C(F)(F)F)cc21
VALUE UNITS: µL/min/1e6 cells
hepatocyte CLint at 1 µM: 2.4

CHEMICAL STRING: CCn1c([C@@H](C)NS(=O)(=O)c2ccc(C#N)nc2)nc2cnc(C3CC3)cc21
VALUE UNITS: µL/min/1e6 cells
hepatocyte CLint at 1 µM: 1.7

====

# ASSAY PROCEDURE: Unbound fraction in dog plasma at 10 uM by LCMS/MS detection based equilibrium dialysis method
# Assay type: ADME, cell-free, Canis lupus familiaris
MEASURE NAME: fraction unbound at 10 µM

CHEMICAL STRING: CCn1c([C@@H](C)NS(=O)(=O)c2ccc(C#N)nc2)nc2cnc(C3CC3)cc21
RESULT: 0.5
//
CHEMICAL STRING: CCn1c([C@@H](C)NS(=O)(=O)c2ccc(C#N)nc2)nc2cnc(C(F)(F)F)cc21
RESULT: 0.36

====

# ASSAY PROCEDURE: Intrinsic clearance in human liver microsomes pre-incubated at 37 degC for 5 mins before NADPH addition by LCMS/MS method
# Format: ADME
# EXPERIMENTAL PARAMETERS: read-out: CLH
MEASURE NAME: microsomal CLint (µL/min/mg)

Here's what some known entries look like.
COMPOUND: CCn1c(C(C)NS(=O)(=O)c2ccc(Cl)cc2)nc2ccncc21 (centres undefined)
VALUE UNITS: µL/min/mg
microsomal CLint: 93
//
COMPOUND: CCn1c([C@@H](C)NS(=O)(=O)c2cn(C)nc2C)nc2ccc(C(F)(F)F)cc21
VALUE UNITS: µL/min/mg
microsomal CLint: 28
//
COMPOUND: CCn1c([C@@H](C)NS(=O)(=O)c2ccc(Cl)cc2)nc2cc(CO)ccc21
VALUE UNITS: µL/min/mg
microsomal CLint: 88
//
COMPOUND: CCn1c([C@@H](C)NS(=O)(=O)c2ccc(Cl)cc2)nc2cc(C#N)ccc21
VALUE UNITS: µL/min/mg
microsomal CLint: 71

(A) CCn1cc(S(=O)(=O)N[C@H](C)c2nc3ccc(C(F)(F)F)cc3n2CC)cn1
(B) CCn1c([C@@H](C)NS(=O)(=O)c2ccc(Cl)cc2)nc2ccc(CN(C)C)cc21
(C) CCn1c([C@@H](C)NS(=O)(=O)c2ccccc2)nc2ccc(C(F)(F)F)cc21
(D) CCn1c([C@@H](C)NS(=O)(=O)c2ccncc2)nc2ccc(C(F)(F)F)cc21
Highest microsomal CLint first, then in falling order down to the smallest. Hello, could you send the labels back in the order asked? Thank you.
A, D, B, C
(A: 95 µL/min/mg, D: 45 µL/min/mg, B: 30 µL/min/mg, C: 14 µL/min/mg)
